Source listed as patent US20120095193A1.

Quick reference for koff among some binders
# tested system: T1, human ADAMTS5 (human, UniProt Q9UNA0 262-622, limits assumed)
# T1 construct: Octet and ELISA used 'recombinant human ADAMTS5'; also called recombinant human ADAMTS5; ADAMTS5 (R&D Systems 2198-AD)
# T1 sequence: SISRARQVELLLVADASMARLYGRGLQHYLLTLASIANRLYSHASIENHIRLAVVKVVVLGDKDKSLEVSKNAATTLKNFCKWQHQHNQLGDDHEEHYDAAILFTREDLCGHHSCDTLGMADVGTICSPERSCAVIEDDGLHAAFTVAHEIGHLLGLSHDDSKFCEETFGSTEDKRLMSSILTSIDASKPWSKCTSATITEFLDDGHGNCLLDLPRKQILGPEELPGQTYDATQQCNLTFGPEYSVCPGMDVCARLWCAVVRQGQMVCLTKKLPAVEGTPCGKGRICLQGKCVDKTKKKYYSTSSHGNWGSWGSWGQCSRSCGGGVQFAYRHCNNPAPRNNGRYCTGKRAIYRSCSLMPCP
# measurement protocol: Biacore, mAb from culture supernatant captured on anti-human IgG, ADAMTS5 (R&D 2198-AD) at 64 nM, 1:1 fit
Hi! Could you send only the number? It should be in s⁻¹, unit omitted.

Worked examples, 4 binders total:
BPC1658 (antibody, human IgG1, kappa, V domains shown, Humanized, human gamma 1 / kappa; also called 12F4 H3L0) VH: EVQLLESGGGLVQPGGSLRLSCAASGFTFSDAWMDWVRQAPGKGLEWVAEIRHKANDHAIFYDESVKGRFTISRDNSKNTVYLQMNSLRAEDTAVYYCTSPFAYWGQGTLVTVSS VL: DIQMTQSPSSLSASVGDRVTITCKASQSVGTTIVWYQQKPGKAPKLLIYSASNRHTGVPSRFSGSGSGTDFTLTISSLQPEDFATYYCQQYTSYPFTFGQGTKLEIKR    0.00014
BPC1637 (antibody, human IgG1, kappa, V domains shown, Humanized, human gamma 1 / kappa; also called 7B4 H3L0) VH: EVQLVESGGGLVQPGGSLRLSCAASGFTSSDAWMDWVRQAPGKGLEWVAEIRNKANNHARHYAESVKGRFTISRDNAKNSLYLQMNSLRAEDTAVYYCTRTYYYGSSYGYCDVWGQGTLVTVSS VL: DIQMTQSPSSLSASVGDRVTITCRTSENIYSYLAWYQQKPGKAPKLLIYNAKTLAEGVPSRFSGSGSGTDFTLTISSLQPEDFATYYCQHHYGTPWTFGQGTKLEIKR    0.000963
BPC1657 (antibody, human IgG1, kappa, V domains shown, Humanized, human gamma 1 / kappa; also called 12F4 H2L0) VH: EVQLLESGGGLVQPGGSLRLSCAASGFTFSDAWMDWVRQAPGKGLEWVSEIRHKANDHAIFYDESVKGRFTISRDDSKNTLYLQMNSLRAEDTAVYYCTSPFAYWGQGTLVTVSS VL: DIQMTQSPSSLSASVGDRVTITCKASQSVGTTIVWYQQKPGKAPKLLIYSASNRHTGVPSRFSGSGSGTDFTLTISSLQPEDFATYYCQQYTSYPFTFGQGTKLEIKR    7.54e-05
BPC1634 (antibody, human IgG1, kappa, V domains shown, Humanized, human gamma 1 / kappa; also called 7B4 H0L0; Humanized 7B4.1E11 H0L0) VH: EVQLVESGGGLVQPGGSLRLSCAASGFTFSDAWMDWVRQAPGKGLEWVAEIRNKANNHARHYAESVKGRFTISRDNAKNSLYLQMNSLRAEDTAVYYCARTYYYGSSYGYCDVWGQGTLVTVSS VL: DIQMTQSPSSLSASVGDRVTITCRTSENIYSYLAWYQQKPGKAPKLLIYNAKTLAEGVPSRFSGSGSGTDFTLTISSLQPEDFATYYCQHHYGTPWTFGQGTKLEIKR    0.000481

What the record says about BPC1635 (antibody, human IgG1, kappa, V domains shown, Humanized, human gamma 1 / kappa; also called 7B4 H1L0) VH: EVQLVESGGGLVQPGGSLRLSCAASGFTFSDAWMDWVRQAPGKGLEWVAEIRNKANNHARHYAESVKGRFTISRDNAKNSLYLQMNSLRAEDTAVYYCTRTYYYGSSYGYCDVWGQGTLVTVSS VL: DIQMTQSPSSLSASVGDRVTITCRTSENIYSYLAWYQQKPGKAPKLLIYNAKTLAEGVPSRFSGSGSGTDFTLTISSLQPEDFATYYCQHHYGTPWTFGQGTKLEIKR : koff is 0.000826
